Below, each entry is listed with its recorded switch fluorescence ratio.
System: ATP;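 further: ATP exposure 15 min at 22 °C before imaging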
Assay: switch fluorescence ratio, 500 uM ATP over buffer (Cy3 cluster intensity, sum of 5 cycles each) (fold (ratio)); higher = stronger signal-on switching upon ATP binding; sequences stand for … in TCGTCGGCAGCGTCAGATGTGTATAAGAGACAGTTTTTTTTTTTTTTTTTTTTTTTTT…TC
Conditions: aptamer strand: ATP DNA aptamer (quencher-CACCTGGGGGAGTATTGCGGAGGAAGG + anchor), 100 nM annealed; ATP concentration: 500 uM
observationType: switch fluorescence ratio

>>> measuredvalue("TCCTGAGGAT")
1
>>> measuredvalue("TTAAATTAAT")
0.976
>>> measuredvalue("TTCGCGATGT")
1.13
>>> measuredvalue("TCAATGGTTA")
0.978
>>> measuredvalue("TTTCTATGTA")
1.01
>>> measuredvalue("ACCTGACTTG")
1.06
>>> measuredvalue("TCACGTGTCA")
1
>>> measuredvalue("GTATGGTGGG")
1.02
>>> measuredvalue("ACTTGTTATG")
0.996
>>> measuredvalue("CGGTGGATCA")
0.992
>>> measuredvalue("GTTAAGGGGT")
1.01
>>> measuredvalue("GGCAGAAAGT")
1.01
>>> measuredvalue("CAAGAAAGTT")
0.964
>>> measuredvalue("TAAGTAGCAG")
0.997
>>> measuredvalue("CCATGTGTCG")
1.05
>>> measuredvalue("AGATAGATCT")
0.987
>>> measuredvalue("GTTGGCCGGC")
1.11
>>> measuredvalue("TGAGGCAGAG")
1.06
>>> measuredvalue("ATCGATGAGC")
1.01
>>> measuredvalue("TTTTGACGGA")
0.994
>>> measuredvalue("GGAGGGTGGT")
0.991
>>> measuredvalue("AGAACTCTTT")
1.02
>>> measuredvalue("AATCTGATGT")
1.18
>>> measuredvalue("TAAATAGGGT")
1.05
>>> measuredvalue("TTGCAAGGCG")
1
>>> measuredvalue("CGCGGTATGG")
1.04
>>> measuredvalue("CTAGTTGATG")
0.991
>>> measuredvalue("CCCGAAGGGC")
1.01
>>> measuredvalue("TTGGTGTTAG")
0.973
>>> measuredvalue("GATTCCGGAC")
1.03
>>> measuredvalue("AAAGTATATG")
0.983
>>> measuredvalue("TTATTTGTTG")
0.971
>>> measuredvalue("TAACGCTAGA")
1.06
>>> measuredvalue("TGTTTAGGTT")
1.01
>>> measuredvalue("ACGAAGATGC")
1.24
>>> measuredvalue("ATGAGAGCGG")
0.996
>>> measuredvalue("GAGGTACCGC")
1.05
>>> measuredvalue("AATAAGATGT")
0.999
>>> measuredvalue("GAGTAGAAGA")
1.01
>>> measuredvalue("TAAAAGATGG")
1.02
>>> measuredvalue("AAGATTATTT")
0.989
>>> measuredvalue("TTAATGGGGT")
1
>>> measuredvalue("TTCCTTGCGT")
1.14

###

Test system: ATP;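 further: ATP exposure 15 min at 22 °C before imaging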
Test: switch fluorescence ratio, 500 uM ATP over buffer (Cy3 cluster intensity, sum of 5 cycles each) (fold (ratio)); higher = stronger signal-on switching upon ATP binding; sequences stand for … in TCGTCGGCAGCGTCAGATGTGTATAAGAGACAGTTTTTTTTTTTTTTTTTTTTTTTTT…TC
Conditions: aptamer strand: ATP DNA aptamer (quencher-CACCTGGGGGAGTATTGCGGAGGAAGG + anchor), 100 nM annealed; ATP concentration: 500 uM
Below, each entry is listed with its recorded switch fluorescence ratio.
observationType: switch fluorescence ratio

>>> measuredvalue("TTCAAATGAA")
1
>>> measuredvalue("AGTAAAGTTA")
1.01
>>> measuredvalue("GAAGGAGAAG")
0.955
>>> measuredvalue("GGGGCTAGCG")
0.99
>>> measuredvalue("TTTCCTGACG")
1.06
>>> measuredvalue("CGTGTAAATA")
0.995
>>> measuredvalue("GGGGTGGACG")
1.07
>>> measuredvalue("ATATTAAGTC")
1.02
>>> measuredvalue("GGTACCTTTG")
0.973
>>> measuredvalue("AATGTGGGTG")
1.03
>>> measuredvalue("GCGAATATCC")
1.11
>>> measuredvalue("AACGGGGTAA")
0.948
>>> measuredvalue("ACGGTCTTGG")
0.999
>>> measuredvalue("TGGGAAGGTT")
1.02
>>> measuredvalue("GATGTTTGTG")
0.992
>>> measuredvalue("TAGGTGCTTT")
1.08
>>> measuredvalue("TCTGTTCTT")
1
>>> measuredvalue("GGGCAGAAAG")
1.01
>>> measuredvalue("TTAGAAAAGG")
1
>>> measuredvalue("TGATTGGGGT")
1.01
>>> measuredvalue("CGGTTGGGGG")
0.962
>>> measuredvalue("TTCGGTGGGG")
0.98
>>> measuredvalue("TGTACGACGG")
1.02
>>> measuredvalue("AAGGTTTAAG")
0.999
>>> measuredvalue("TGAAGGGGGG")
0.984
>>> measuredvalue("AAATGCGTTT")
0.979
>>> measuredvalue("TCATAGGGTG")
1.03
>>> measuredvalue("TTGAAGGCGT")
1
>>> measuredvalue("GTTATATATG")
1.01
>>> measuredvalue("AACGGGTGCG")
0.995
>>> measuredvalue("TGTGTTCCTC")
1.08
>>> measuredvalue("TGGGTTCGGA")
0.985
>>> measuredvalue("AAGCTGCATG")
1.01
>>> measuredvalue("AGGGGGAGTC")
1.02
>>> measuredvalue("CGGTTTGTCT")
0.986
>>> measuredvalue("TTTTAGGAGT")
0.989
>>> measuredvalue("AAATAAGTC")
0.945
>>> measuredvalue("CGAGGGGATG")
1.01
>>> measuredvalue("TAATTGGACT")
1.01
>>> measuredvalue("GTTTTCAGGT")
0.992
>>> measuredvalue("TAAATGAGGA")
1.03
>>> measuredvalue("GATTGCAGTG")
0.979
>>> measuredvalue("GACGTGAAGG")
1.03
>>> measuredvalue("ATTTCAGAGG")
1.02
>>> measuredvalue("TTAAGTTTAC")
1.01
>>> measuredvalue("ATTGAAATCA")
0.987
>>> measuredvalue("TTTAAAGACC")
0.993
>>> measuredvalue("GCAAACGCAG")
1.05
>>> measuredvalue("CGCATAAATA")
1.16
>>> measuredvalue("AATAGTTTTT")
0.986
>>> measuredvalue("GGGGCGAGAG")
0.994
>>> measuredvalue("TAGTTTGATG")
0.986
>>> measuredvalue("ATGTCCGGGT")
1.03
>>> measuredvalue("AAACTTTCTA")
1.05
>>> measuredvalue("ACTGTAATTT")
1.18
>>> measuredvalue("TTTGTAAATT")
1
>>> measuredvalue("GGAGGGGGGT")
1.01
>>> measuredvalue("AATTTTAGTG")
0.986
>>> measuredvalue("ACGGAACAAG")
1.09
>>> measuredvalue("TTTAATTGCC")
0.993
>>> measuredvalue("GCGGGGATCT")
1.04
>>> measuredvalue("TGGGTTAATT")
0.989
>>> measuredvalue("AGAGGCCGTT")
0.997
>>> measuredvalue("ATGTGTAAAG")
0.98
>>> measuredvalue("TTGCTTAAAC")
1.02
>>> measuredvalue("AAGTTGGATG")
0.977
>>> measuredvalue("CTCCTCGTGC")
3.49
>>> measuredvalue("AGGGGTTATC")
1.02
>>> measuredvalue("TGTTTGATGG")
1.01
>>> measuredvalue("TTAAGGGCAA")
1.06
>>> measuredvalue("AAATCACGGA")
1.44
>>> measuredvalue("GCTGGGAATA")
0.95
>>> measuredvalue("TTACTTTATT")
1.05
>>> measuredvalue("TTCTGTTAAA")
1.02
>>> measuredvalue("AAGTTTTGGG")
0.974
>>> measuredvalue("ATGATACAGT")
1.02
>>> measuredvalue("GGTCCTTGTT")
1
>>> measuredvalue("CAGTGGGTCT")
0.992
>>> measuredvalue("ATTATTGGGC")
0.981
>>> measuredvalue("ATGATAGATA")
1
>>> measuredvalue("ACGGGGGTCC")
1.02
>>> measuredvalue("CCCGAGTATG")
1.03
>>> measuredvalue("TATAAAAGGA")
1
>>> measuredvalue("CAGGGGGGG")
1
>>> measuredvalue("TTAAATCGTT")
1.04
>>> measuredvalue("TTTTACCCTT")
1.04

###

System: ATP;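 further: ATP exposure 15 min at 22 °C before imaging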
Test: switch fluorescence ratio, 500 uM ATP over buffer (Cy3 cluster intensity, sum of 5 cycles each) (fold (ratio)); higher = stronger signal-on switching upon ATP binding; sequences stand for … in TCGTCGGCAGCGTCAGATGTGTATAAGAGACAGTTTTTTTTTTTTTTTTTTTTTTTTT…TC
Details: aptamer strand: ATP DNA aptamer (quencher-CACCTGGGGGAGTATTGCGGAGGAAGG + anchor), 100 nM annealed; ATP concentration: 500 uM
observationType: switch fluorescence ratio

>>> measuredvalue("CCCCGGGGGG")
1.09
>>> measuredvalue("TAACCACCGG")
1.03
>>> measuredvalue("TAATGTAAAA")
0.992
>>> measuredvalue("GTATTAGGCG")
1.02
>>> measuredvalue("GTTTGTTATC")
0.98
>>> measuredvalue("CGCTCAGTTG")
1.13
>>> measuredvalue("CTAATGGACA")
1.01
>>> measuredvalue("TTTTAACTCT")
1.05
>>> measuredvalue("TGGGGTGGGT")
1
>>> measuredvalue("TATTACTGAG")
1.07

Attribution: the supplement of paper PMC10126150
